Target: S. clavuligerus expandase (Streptomyces clavuligerus)
Construct: endogenous in cells; host or cells: S. clavuligerus mutant NP1, crude cell-free extract
Sequence (P18548 whole entry): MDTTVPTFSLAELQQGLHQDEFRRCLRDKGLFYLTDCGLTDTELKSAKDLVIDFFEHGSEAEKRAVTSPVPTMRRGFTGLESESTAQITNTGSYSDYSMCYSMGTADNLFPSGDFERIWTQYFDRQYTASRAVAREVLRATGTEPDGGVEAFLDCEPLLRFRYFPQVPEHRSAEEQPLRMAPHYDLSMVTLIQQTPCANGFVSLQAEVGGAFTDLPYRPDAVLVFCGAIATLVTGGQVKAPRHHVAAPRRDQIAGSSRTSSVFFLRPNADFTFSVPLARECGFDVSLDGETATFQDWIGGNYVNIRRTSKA
Test: Penicillin ring expansion by cell-free S. clavuligerus expandase extracts, paper disc-agar diffusion bioassay
Type: biochemical
Settings: 4 mg/ml extract protein, 2 mg/ml substrate (penicillin mX and octanoyl-6-APA 3 mg/ml), 2 hours
Procedure: Preparation of Cell-free Extracts: Fermentation broths were centrifuged at 8,000×g and 4° C. for 10 min. Pellets were washed twice using 50 mM Tris-HCI supplemented with 0.1 mM dithiothreitol (DTT). […] Protein concentrations were measured using the Bio-Rad protein assay (Bio-Rad, Hercules, Calif.). […] Detection of Expandase Activity: As mentioned above, expandase activity was detected by assaying production of a growth-inhibitory zone in a paper disc-agar diffusion bioassay. […]
observable: Ring expansion, size of zones of inhibition

Return Ring expansion, size of zones of inhibition measured with S. clavuligerus expandase (Streptomyces clavuligerus) given this compound: CC1(C)S[C@@H]2[C@H](NC(=O)[C@H](N)c3ccccc3)C(=O)N2[C@H]1C(=O)O [Ampicillin, ampicillin]
intermediate size zones

Return Ring expansion, size of zones of inhibition measured with S. clavuligerus expandase (Streptomyces clavuligerus) given this compound: CC1(C)S[C@@H]2[C@H](NC(=O)COc3ccccc3)C(=O)N2[C@H]1C(=O)O [Penicillin V, penicillin V]
smaller zones

Return Ring expansion, size of zones of inhibition measured with S. clavuligerus expandase (Streptomyces clavuligerus) given this compound: CCCCCCCCC(=O)NC1C(=O)N2C1SC(C)(C)C2C(=O)O (stereo not shown) [Nonanoyl-6-APA, nonanoyl-6-APA]
smaller zones

Return Ring expansion, size of zones of inhibition measured with S. clavuligerus expandase (Streptomyces clavuligerus) given this compound: CCCCCCCC(=O)N[C@@H]1C(=O)N2[C@@H]1SC(C)(C)[C@@H]2C(=O)O [Octanoyl-6-APA, octanoyl-6-APA]
intermediate size zones
